- TARGET OR SYSTEM: ATP-dependent translocase ABCB1 (Homo sapiens, UniProt P08183)
- Sequence (P08183 whole entry): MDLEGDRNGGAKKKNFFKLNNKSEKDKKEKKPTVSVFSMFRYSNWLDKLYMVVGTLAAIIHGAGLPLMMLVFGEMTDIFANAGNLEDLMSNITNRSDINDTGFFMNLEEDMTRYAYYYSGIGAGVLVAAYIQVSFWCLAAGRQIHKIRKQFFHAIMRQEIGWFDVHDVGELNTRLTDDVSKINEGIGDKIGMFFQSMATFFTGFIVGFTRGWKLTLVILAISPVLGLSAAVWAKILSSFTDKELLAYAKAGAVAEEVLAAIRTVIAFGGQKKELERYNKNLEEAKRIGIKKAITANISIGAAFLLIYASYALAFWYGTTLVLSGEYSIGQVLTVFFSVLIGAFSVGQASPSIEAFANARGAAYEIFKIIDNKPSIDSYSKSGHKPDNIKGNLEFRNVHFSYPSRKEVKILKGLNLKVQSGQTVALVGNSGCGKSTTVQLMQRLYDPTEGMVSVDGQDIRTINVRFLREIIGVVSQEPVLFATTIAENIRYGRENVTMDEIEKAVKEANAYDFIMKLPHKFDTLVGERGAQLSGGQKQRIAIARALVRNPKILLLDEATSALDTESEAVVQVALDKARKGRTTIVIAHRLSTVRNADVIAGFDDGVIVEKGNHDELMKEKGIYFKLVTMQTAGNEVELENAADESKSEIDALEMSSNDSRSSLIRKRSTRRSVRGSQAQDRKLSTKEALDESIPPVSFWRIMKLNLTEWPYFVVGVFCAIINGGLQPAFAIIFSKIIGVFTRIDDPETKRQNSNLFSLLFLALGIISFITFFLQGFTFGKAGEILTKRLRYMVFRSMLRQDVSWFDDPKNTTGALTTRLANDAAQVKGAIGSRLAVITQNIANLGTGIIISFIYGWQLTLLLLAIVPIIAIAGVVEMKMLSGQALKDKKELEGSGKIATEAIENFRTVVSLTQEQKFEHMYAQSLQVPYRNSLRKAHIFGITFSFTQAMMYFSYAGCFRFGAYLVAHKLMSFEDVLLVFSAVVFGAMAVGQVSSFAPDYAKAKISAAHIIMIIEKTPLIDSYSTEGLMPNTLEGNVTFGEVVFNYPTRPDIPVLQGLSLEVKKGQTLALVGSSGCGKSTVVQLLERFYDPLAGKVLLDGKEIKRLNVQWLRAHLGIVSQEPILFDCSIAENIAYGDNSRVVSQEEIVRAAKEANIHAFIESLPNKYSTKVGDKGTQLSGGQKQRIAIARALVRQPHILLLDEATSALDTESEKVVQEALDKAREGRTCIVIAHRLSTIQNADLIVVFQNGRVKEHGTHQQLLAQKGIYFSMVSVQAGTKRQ
- METHOD NOTES: Inhibition of human ABCB1 expressed in mouse L5178 cells assessed as 75% inhibition of cell proliferation at compound-doxorubicin ratio of 20.4:1 after 48 hrs by MTT assay
- Format: cell-based
- REPORTED CONDITIONS: l5178, 48 h
PARAMETER MEASURED: fractional inhibitory concentration index (FICI)
Please respond with just the number, no unit label.

Supply fractional inhibitory concentration index (FICI) value. Item: `CC(C)(O)CC[C@H]1OC(C)(C)O[C@]1(C)[C@H]1CC[C@@]2(O)C3=CC(=O)[C@@H]4C[C@H]5OC(C)(C)O[C@H]5C[C@]4(C)[C@H]3CC[C@]12C`
0.14

Supply fractional inhibitory concentration index (FICI) value. Item: `C=C(CCCC(C)(C)O)[C@H]1CC[C@@]2(O)C3=CC(=O)[C@@H]4C[C@@H](O)[C@@H](O)[C@@H](O)[C@]4(C)[C@H]3CC[C@]12C`
0.86

Supply fractional inhibitory concentration index (FICI) value. Item: `CC[C@H](C[C@H]1OC(C)(C)O[C@]1(C)[C@H]1CC[C@@]2(O)C3=CC(=O)[C@@H]4C[C@H]5OC(C)(C)O[C@H]5C[C@]4(C)[C@H]3CC[C@]12C)C(C)(C)O`
0.11

Supply fractional inhibitory concentration index (FICI) value. Item: `CC(C)CC[C@H]1OC(C)(C)O[C@]1(C)[C@H]1CC[C@@]2(O)C3=CC(=O)[C@@H]4C[C@H]5OC(C)(C)O[C@H]5C[C@]4(C)C3=CC[C@]12C`
0.14

Supply fractional inhibitory concentration index (FICI) value. Item: `CC(C)(O)CC[C@H]1OC(C)(C)O[C@]1(C)[C@H]1CC[C@@]2(O)C3=CC(=O)[C@@H]4C[C@H]5OC(C)(C)O[C@H]5[C@@H](O)[C@]4(C)[C@H]3CC[C@]12C`
0.49

Supply fractional inhibitory concentration index (FICI) value. Item: `CC(C)CC[C@H]1OC(C)(C)O[C@]1(C)[C@H]1CC[C@@]2(O)C3=CC(=O)[C@@H]4C[C@H]5OC(C)(C)O[C@H]5C[C@]4(C)[C@H]3[C@H](O)C[C@]12C`
0.14

Supply fractional inhibitory concentration index (FICI) value. Item: CC1(CC[C@H]2OC(C)(C)O[C@]2(C)[C@H]2CC[C@@]3(O)C4=CC(=O)[C@@H]5C[C@H]6OC(C)(C)O[C@H]6C[C@]5(C)[C@H]4CC[C@]23C)COC(C)(C)O1 (stereo not given in full)
0.16

Supply fractional inhibitory concentration index (FICI) value. Item: `CC(C)CC[C@H]1OC(C)(C)O[C@]1(C)[C@H]1CC[C@@]2(O)C3=CC(=O)[C@@H]4C[C@@H](O)[C@@H](O)C[C@]4(C)[C@H]3[C@H](O)C[C@]12C`
0.25

Supply fractional inhibitory concentration index (FICI) value. Item: `CC(C)(O)CC[C@@H](O)[C@](C)(O)[C@H]1CC[C@@]2(O)C3=CC(=O)[C@H]4C[C@@H](O)C[C@@H](O)[C@]4(C)[C@H]3CC[C@]12C`
1.7

Supply fractional inhibitory concentration index (FICI) value. Item: `CC(C)(O)CC[C@@H](O)[C@](C)(O)[C@H]1CC[C@@]2(O)C3=CC(=O)[C@]4(O)C[C@@H](O)[C@@H](O)C[C@]4(C)[C@H]3CC[C@]12C`
0.8

Where do these numbers come from? They come from ChEMBL document CHEMBL2086273.
